B1: library; a variant is named by its letters at N, in order (parent)
chain: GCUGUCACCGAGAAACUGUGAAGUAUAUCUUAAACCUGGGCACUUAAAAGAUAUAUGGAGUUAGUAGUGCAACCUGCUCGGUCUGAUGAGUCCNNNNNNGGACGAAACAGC

Variants of: B1
Assay: normalized RNA/DNA level with ligand (relative to sTRSVctl = 100) (log10 (% of sTRSVctl)); HEK293T; ligand: cyclic di-GMP (c-di-GMP-II aptamer); ligand concentration (+) RNA-Seq: 1 mM; higher = less ribozyme self-cleavage, higher mRNA level
Conditions: reporter: mCherry (pCS4076), ligand present: yes
OBSERVATION_TYPE: normalized RNA/DNA level with ligand (log10)
Answer with a number only.

Completed entries (count: 6):
POLYMER_SEQUENCE | MEASURED_NUMBER
GCUGUCACCGAGAAACUGUGAAGUAUAUCUUAAACCUGGGCACUUAAAAGAUAUAUGGAGUUAGUAGUGCAACCUGCUCGGUCUGAUGAGUCCGCUGCUGGACGAAACAGC [GCUGCU] | 1.8
GCUGUCACCGAGAAACUGUGAAGUAUAUCUUAAACCUGGGCACUUAAAAGAUAUAUGGAGUUAGUAGUGCAACCUGCUCGGUCUGAUGAGUCCUGUGAUGGACGAAACAGC [UGUGAU] | 1.81
GCUGUCACCGAGAAACUGUGAAGUAUAUCUUAAACCUGGGCACUUAAAAGAUAUAUGGAGUUAGUAGUGCAACCUGCUCGGUCUGAUGAGUCCUCGCGGGGACGAAACAGC [UCGCGG] | 1.85
GCUGUCACCGAGAAACUGUGAAGUAUAUCUUAAACCUGGGCACUUAAAAGAUAUAUGGAGUUAGUAGUGCAACCUGCUCGGUCUGAUGAGUCCCUCCAUGGACGAAACAGC [CUCCAU] | 1.82
GCUGUCACCGAGAAACUGUGAAGUAUAUCUUAAACCUGGGCACUUAAAAGAUAUAUGGAGUUAGUAGUGCAACCUGCUCGGUCUGAUGAGUCCCGCAUAGGACGAAACAGC [CGCAUA] | 1.52
GCUGUCACCGAGAAACUGUGAAGUAUAUCUUAAACCUGGGCACUUAAAAGAUAUAUGGAGUUAGUAGUGCAACCUGCUCGGUCUGAUGAGUCCGAAAUGGGACGAAACAGC [GAAAUG] | 1.71

Prompt: Need normalized RNA/DNA level with ligand (log10), item GCUGUCACCGAGAAACUGUGAAGUAUAUCUUAAACCUGGGCACUUAAAAGAUAUAUGGAGUUAGUAGUGCAACCUGCUCGGUCUGAUGAGUCCACUACGGGACGAAACAGC [ACUACG]
Completion: 1.81

Prompt: Need normalized RNA/DNA level with ligand (log10), item GCUGUCACCGAGAAACUGUGAAGUAUAUCUUAAACCUGGGCACUUAAAAGAUAUAUGGAGUUAGUAGUGCAACCUGCUCGGUCUGAUGAGUCCCGUCGUGGACGAAACAGC [CGUCGU]
Completion: 1.9

Prompt: Need normalized RNA/DNA level with ligand (log10), item GCUGUCACCGAGAAACUGUGAAGUAUAUCUUAAACCUGGGCACUUAAAAGAUAUAUGGAGUUAGUAGUGCAACCUGCUCGGUCUGAUGAGUCCUUAUGCGGACGAAACAGC [UUAUGC]
Completion: 1.81

Prompt: Need normalized RNA/DNA level with ligand (log10), item GCUGUCACCGAGAAACUGUGAAGUAUAUCUUAAACCUGGGCACUUAAAAGAUAUAUGGAGUUAGUAGUGCAACCUGCUCGGUCUGAUGAGUCCGACCGUGGACGAAACAGC [GACCGU]
Completion: 1.86

Prompt: Need normalized RNA/DNA level with ligand (log10), item GCUGUCACCGAGAAACUGUGAAGUAUAUCUUAAACCUGGGCACUUAAAAGAUAUAUGGAGUUAGUAGUGCAACCUGCUCGGUCUGAUGAGUCCAUUGAGGGACGAAACAGC [AUUGAG]
Completion: 1.7

Prompt: Need normalized RNA/DNA level with ligand (log10), item GCUGUCACCGAGAAACUGUGAAGUAUAUCUUAAACCUGGGCACUUAAAAGAUAUAUGGAGUUAGUAGUGCAACCUGCUCGGUCUGAUGAGUCCACCAUUGGACGAAACAGC [ACCAUU]
Completion: 1.79

Prompt: Need normalized RNA/DNA level with ligand (log10), item GCUGUCACCGAGAAACUGUGAAGUAUAUCUUAAACCUGGGCACUUAAAAGAUAUAUGGAGUUAGUAGUGCAACCUGCUCGGUCUGAUGAGUCCGCGGAUGGACGAAACAGC [GCGGAU]
Completion: 1.63

Prompt: Need normalized RNA/DNA level with ligand (log10), item GCUGUCACCGAGAAACUGUGAAGUAUAUCUUAAACCUGGGCACUUAAAAGAUAUAUGGAGUUAGUAGUGCAACCUGCUCGGUCUGAUGAGUCCCGGUGUGGACGAAACAGC [CGGUGU]
Completion: 1.88

Prompt: Need normalized RNA/DNA level with ligand (log10), item GCUGUCACCGAGAAACUGUGAAGUAUAUCUUAAACCUGGGCACUUAAAAGAUAUAUGGAGUUAGUAGUGCAACCUGCUCGGUCUGAUGAGUCCUUUGUAGGACGAAACAGC [UUUGUA]
Completion: 1.85

Prompt: Need normalized RNA/DNA level with ligand (log10), item GCUGUCACCGAGAAACUGUGAAGUAUAUCUUAAACCUGGGCACUUAAAAGAUAUAUGGAGUUAGUAGUGCAACCUGCUCGGUCUGAUGAGUCCACCUAAGGACGAAACAGC [ACCUAA]
Completion: 1.76

Prompt: Need normalized RNA/DNA level with ligand (log10), item GCUGUCACCGAGAAACUGUGAAGUAUAUCUUAAACCUGGGCACUUAAAAGAUAUAUGGAGUUAGUAGUGCAACCUGCUCGGUCUGAUGAGUCCUCAUAUGGACGAAACAGC [UCAUAU]
Completion: 1.72

Prompt: Need normalized RNA/DNA level with ligand (log10), item GCUGUCACCGAGAAACUGUGAAGUAUAUCUUAAACCUGGGCACUUAAAAGAUAUAUGGAGUUAGUAGUGCAACCUGCUCGGUCUGAUGAGUCCCAAAGAGGACGAAACAGC [CAAAGA]
Completion: 1.68

Prompt: Need normalized RNA/DNA level with ligand (log10), item GCUGUCACCGAGAAACUGUGAAGUAUAUCUUAAACCUGGGCACUUAAAAGAUAUAUGGAGUUAGUAGUGCAACCUGCUCGGUCUGAUGAGUCCUUCAGGGGACGAAACAGC [UUCAGG]
Completion: 1.88

Prompt: Need normalized RNA/DNA level with ligand (log10), item GCUGUCACCGAGAAACUGUGAAGUAUAUCUUAAACCUGGGCACUUAAAAGAUAUAUGGAGUUAGUAGUGCAACCUGCUCGGUCUGAUGAGUCCCCAUGAGGACGAAACAGC [CCAUGA]
Completion: 1.72

Prompt: Need normalized RNA/DNA level with ligand (log10), item GCUGUCACCGAGAAACUGUGAAGUAUAUCUUAAACCUGGGCACUUAAAAGAUAUAUGGAGUUAGUAGUGCAACCUGCUCGGUCUGAUGAGUCCAGGGCUGGACGAAACAGC [AGGGCU]
Completion: 1.85

Prompt: Need normalized RNA/DNA level with ligand (log10), item GCUGUCACCGAGAAACUGUGAAGUAUAUCUUAAACCUGGGCACUUAAAAGAUAUAUGGAGUUAGUAGUGCAACCUGCUCGGUCUGAUGAGUCCGCCCACGGACGAAACAGC [GCCCAC]
Completion: 1.82

Prompt: Need normalized RNA/DNA level with ligand (log10), item GCUGUCACCGAGAAACUGUGAAGUAUAUCUUAAACCUGGGCACUUAAAAGAUAUAUGGAGUUAGUAGUGCAACCUGCUCGGUCUGAUGAGUCCCCCGCUGGACGAAACAGC [CCCGCU]
Completion: 1.88
